- Tested on: Plasmodium falciparum
- experimentDescription: GSK_TCMDC: Inhibition of Plasmodium falciparum 3D7 in whole red blood cells, using parasite LDH activity as an index of growth. Test compounds present at 2uM
- Type: functional
quantityName: Inhibition (%)
Number only, in %; omit the unit.

These solved cases illustrate the format of a correct answer.
# compound, quantitativeResult
data = [
    ("O=C(c1cc(C(=O)NC2CCCCC2)c(=O)n(C2CCCCC2)c1)c1cc(F)ccc1O", 99),
    ("COc1cc(NC(=O)Nc2ccc(Br)cc2C(=O)Nc2ccc(Br)cc2)cc(OC)c1OC", 99),
    ("O=C(Nc1ccccc1)N(Cc1cccc(-c2ccc(CNCc3ccc4c(c3)OCO4)cc2)c1)C1CCN(Cc2ccccc2)CC1.O=C(O)C(F)(F)F", 100),
    ("CCC(CC)N1C(=O)C(c2ccccc2)(c2ccccc2)N=C1N.O=CO", 96),
    ("Cl.NC(=O)c1cccc(Nc2nccc(Nc3ccc(Oc4ccc5ccccc5c4)cc3)n2)c1", 96),
    ("O=C(/C=C/c1ccc(Cl)c(Cl)c1)NCCCCCN1CCC(NC(=O)c2cc(Cl)ccc2F)CC1", 92),
]

As a next step, examine the compound that follows.
Enquiry: Consider the compound "Cc1cccc(C)c1CNc1ccnc2cc(Br)ccc12.Cl" . State its measured Inhibition.
Return: 95
